Tested on: Calu-3 cells
Experiment: Cytotoxicity (MTT / CellTiter-Glo cell viability) in Calu-3 cells
Format: cell-based, human
Details: at MNCC, 48 h exposure, normalized to untreated control; mean 2x
Counter-ions that a name gives are not always drawn.

Compound	U	% viability Calu-3
C[C@H]1[C@H](OC(=O)CCC(=O)O)O[C@@H]2O[C@@]3(C)CC[C@H]4[C@H](C)CC[C@@H]1[C@@]24OO3 [Artesunic acid (AS), Artesunic acid]	%	74
COc1ccc2nc3cc(Cl)ccc3c(Nc3cc(CN4CCCC4)c(O)c(CN4CCCC4)c3)c2n1 [Pyranoridine (PNO), Pyranoridine]	%	78
CC[C@H](C)[C@H]1O[C@]2(CC[C@@H]1C)C[C@@H]1C[C@@H](C/C=C(\C)[C@@H](O[C@H]3C[C@H](OC)[C@@H](O[C@H]4C[C@H](OC)[C@@H](O)[C@H](C)O4)[C@H](C)O3)[C@@H](C)/C=C/C=C3\CO[C@@H]4[C@H](O)C(C)=C[C@@H](C(=O)O1)[C@]34O)O2 [Ivermectin (IVM), Ivermectin]	%	87
CCN(CCO)CCCC(C)Nc1ccnc2cc(Cl)ccc12 (centres unmarked) [Hydroxychloroquine sulfate (HCQ), Hydroxychloroquine sulfate]	%	64
C[C@H]1[C@H](OC(=O)CCC(=O)O)O[C@@H]2O[C@@]3(C)CC[C@H]4[C@H](C)CC[C@@H]1[C@@]24OO3 [Artesunate injection (ASi), Artesunate]	%	82
CN1CCN(CCCN2c3ccccc3Sc3ccc(Cl)cc32)CC1 [Prochlorperazine (PCPZ), Prochlorperazine]	%	77
C[C@H]1[C@@H](OCc2ccc(C(=O)O)cc2)O[C@@H]2O[C@@]3(C)CC[C@H]4[C@H](C)CC[C@@H]1[C@@]24OO3 [Artelinic Acid (AA), Artelinic Acid]	%	92
CCN(CCO)CCCC(C)Nc1ccnc2cc(Cl)ccc12 (centres unmarked) [Hydroxychloroquine Minsa (HCQ-m), Hydroxychloroquine]	%	84

Value source: paper PMC12175177
